# subjectOfTest: T1, soluble heterodimeric hCD3ε/δ.mFc protein (human)
# T1 construct: also called soluble human CD3; human CD3 heterodimeric protein
# testProtocol: SPR 37 C, antigen-capture format
assayMetric: T½ (min)
Give the value in min but do not write min after it.

binder	T½ / min
BSPSMA/CD3-1600 (bispecific antibody) chain 1: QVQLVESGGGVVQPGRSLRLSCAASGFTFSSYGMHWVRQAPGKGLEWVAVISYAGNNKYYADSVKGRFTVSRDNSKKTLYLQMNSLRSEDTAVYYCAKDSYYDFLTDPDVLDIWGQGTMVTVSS chain 2: EVQLVESGGGLVQPGRSLRLSCAASGFTFDDYSMHWVRQAPGKGLEWVSGISWNSGSKGYADSVKGRFTISRDNAKNSLYLQMNSLRAEDTALYYCAKDGSGYGKFYHYGMDVWGQGTTVTVSS chain 3: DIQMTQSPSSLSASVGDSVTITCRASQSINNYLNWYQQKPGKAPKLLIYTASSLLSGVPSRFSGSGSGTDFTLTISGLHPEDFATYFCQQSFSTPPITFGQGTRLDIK	4.7
BSPSMA/CD3-1100 (bispecific antibody) chain 1: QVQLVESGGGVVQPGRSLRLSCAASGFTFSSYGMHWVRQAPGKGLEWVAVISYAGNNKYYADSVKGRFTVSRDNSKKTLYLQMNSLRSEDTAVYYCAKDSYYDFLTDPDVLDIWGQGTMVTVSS chain 2: EVQLVESGGGLVQPGRSLRLSCAASGFTFDDYSMHWVRQAPGKGLEWVSGISWNSGSKGYADSVKGRFTISRDNAKNSLYLQMNSLRAEDTALYYCAKYGSGYGKFYHYGMDVWGQGTTVTVSS chain 3: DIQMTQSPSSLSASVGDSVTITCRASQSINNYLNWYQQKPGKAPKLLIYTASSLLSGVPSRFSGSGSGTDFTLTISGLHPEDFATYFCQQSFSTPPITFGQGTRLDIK	11.3
BSPSMA/CD3-1200 (bispecific antibody) chain 1: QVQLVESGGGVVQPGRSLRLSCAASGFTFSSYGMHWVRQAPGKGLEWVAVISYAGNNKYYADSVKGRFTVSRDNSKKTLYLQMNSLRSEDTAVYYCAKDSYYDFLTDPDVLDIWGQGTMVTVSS chain 2: EVQLVESGGGLVQPGRSLRLSCAASGFTFDDYSMHWVRQAPGKGLEWVSGISWNSGSIGYADSVKGRFTISRDNAKNSLYLQMNSLRAEDTALYYCAKDGSGYGKFYHYGLDVWGQGTTVTVSS chain 3: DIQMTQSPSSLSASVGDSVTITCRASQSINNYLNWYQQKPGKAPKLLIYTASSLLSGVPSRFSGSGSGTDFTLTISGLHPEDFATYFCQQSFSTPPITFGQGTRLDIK	4.7

**Query** So what does the record say about T½ for BSPSMA/CD3-1000 (bispecific antibody) chain 1: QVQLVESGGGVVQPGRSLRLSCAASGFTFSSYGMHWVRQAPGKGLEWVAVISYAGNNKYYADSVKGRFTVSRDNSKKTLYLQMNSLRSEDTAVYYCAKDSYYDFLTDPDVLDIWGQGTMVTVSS chain 2: EVQLVESGGGLVQPGRSLRLSCAASGFTFDDYSMHWVRQAPGKGLEWVSGISWNSGSKGYADSVKGRFTISRDNAKNSLYLQMNSLRAEDTALYYCAKYGSGYGKFYYYGLDVWGQGTTVTVSS chain 3: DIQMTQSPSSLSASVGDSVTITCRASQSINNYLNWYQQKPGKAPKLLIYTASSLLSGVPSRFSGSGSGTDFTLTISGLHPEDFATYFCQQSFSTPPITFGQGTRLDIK ?
**Result** 1.8

**Query** So what does the record say about T½ for BSPSMA/CD3-800 (bispecific antibody) chain 1: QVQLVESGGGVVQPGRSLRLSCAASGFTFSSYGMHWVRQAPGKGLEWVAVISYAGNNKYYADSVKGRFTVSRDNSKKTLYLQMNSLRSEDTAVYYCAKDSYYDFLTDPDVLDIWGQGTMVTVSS chain 2: EVQLVESGGGLVQPGRSLRLSCAASGFTFDDYSMHWVRQAPGKGLEWVSGISWNSGSIGYADSVKGRFTISRDNAKNSLYLQMNSLRAEDTALYYCAKYGSGYGKFYHYGLDVWGQGTTVTVSS chain 3: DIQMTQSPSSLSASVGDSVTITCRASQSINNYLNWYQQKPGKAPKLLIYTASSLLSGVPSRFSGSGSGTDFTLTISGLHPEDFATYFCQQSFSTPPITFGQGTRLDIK ?
**Result** 10
